The reported measurements were obtained from ChEMBL document CHEMBL2407055.

Test: Protein binding in human plasma
Assay type: ADME, cell-free
Settings: read-out: PPB
Reported Endpoint: fraction unbound

> print(dat)
                                   molecule  reported.endpoint  result.number
1  O=C(NCc1ccc(F)cc1)C1C(=O)N(O)C(=O)c2ccccc21 (stereo unspecified)   fraction unbound          0.001

---

Consider the following molecules and their measured pIC50 readings.
Target: Human immunodeficiency virus type 1 integrase (Human immunodeficiency virus 1)
Sequence (Q7ZJM1 whole entry): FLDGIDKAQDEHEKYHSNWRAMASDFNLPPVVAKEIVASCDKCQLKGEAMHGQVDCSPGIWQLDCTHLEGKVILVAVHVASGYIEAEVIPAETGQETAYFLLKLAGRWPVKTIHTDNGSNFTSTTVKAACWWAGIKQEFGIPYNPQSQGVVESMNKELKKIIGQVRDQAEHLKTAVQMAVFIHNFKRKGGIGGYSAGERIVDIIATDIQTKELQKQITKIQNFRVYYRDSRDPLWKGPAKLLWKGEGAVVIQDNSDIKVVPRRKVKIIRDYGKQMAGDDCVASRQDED
Test: Inhibition of strand transfer activity of HIV1 integrase using pre-cleaved oligonucleotide as substrate after 1 hr by ELISA
pIC50: −log10 of the molar value.
Reported Endpoint: pIC50

> print(dat)
                                    molecule                               target.desc  reported.endpoint  result.number
 1  O=C(NCCc1ccc(F)cc1)C1C(=O)N(O)C(=O)c2ccccc21 (stereo unspecified)  Human immunodeficiency virus type 1 integrase (Human immunodeficiency virus 1)              pIC50           6.70
 2  COc1ccc(CNC(=O)C2C(=O)N(O)C(=O)c3ccccc32)cc1OC (stereo unspecified)  Human immunodeficiency virus type 1 integrase (Human immunodeficiency virus 1)              pIC50           6.51
 3  COc1ccc(CNC(=O)C2C(=O)N(O)C(=O)c3ccccc32)cc1 (stereo unspecified)  Human immunodeficiency virus type 1 integrase (Human immunodeficiency virus 1)              pIC50           5.99
 4  Cc1ccc(CNC(=O)C2C(=O)N(O)C(=O)c3ccccc32)cc1 (stereo unspecified)  Human immunodeficiency virus type 1 integrase (Human immunodeficiency virus 1)              pIC50           7.08
 5  O=C(Nc1ccccc1)C1C(=O)N(O)C(=O)c2ccccc21 (stereo unspecified)  Human immunodeficiency virus type 1 integrase (Human immunodeficiency virus 1)              pIC50           6.14
 6  COc1ccc(CNC(=O)C2C(=O)N(O)C(=O)c3ccccc32)c(OC)c1 (stereo unspecified)  Human immunodeficiency virus type 1 integrase (Human immunodeficiency virus 1)              pIC50           6.60
 7  CN(C(=O)C1C(=O)N(O)C(=O)c2ccccc21)c1ccccc1 (stereo unspecified)  Human immunodeficiency virus type 1 integrase (Human immunodeficiency virus 1)              pIC50           5.25
 8  O=C(NCc1ccc(O)c(O)c1)C1C(=O)N(O)C(=O)c2ccccc21 (stereo unspecified)  Human immunodeficiency virus type 1 integrase (Human immunodeficiency virus 1)              pIC50           6.59
 9  O=C(Nc1cccc(F)c1)C1C(=O)N(O)C(=O)c2ccccc21 (stereo unspecified)  Human immunodeficiency virus type 1 integrase (Human immunodeficiency virus 1)              pIC50           6.96
10  O=C(NCCc1ccc(O)c(O)c1)C1C(=O)N(O)C(=O)c2ccccc21 (stereo unspecified)  Human immunodeficiency virus type 1 integrase (Human immunodeficiency virus 1)              pIC50           6.53
11  COc1ccc(CCNC(=O)C2C(=O)N(O)C(=O)c3ccccc32)cc1OC (stereo unspecified)  Human immunodeficiency virus type 1 integrase (Human immunodeficiency virus 1)              pIC50           6.90
